- measured-on: Protein translocase subunit SecA (Escherichia coli (strain K12)) (UniProt P10408)
- Sequence (P10408 whole entry): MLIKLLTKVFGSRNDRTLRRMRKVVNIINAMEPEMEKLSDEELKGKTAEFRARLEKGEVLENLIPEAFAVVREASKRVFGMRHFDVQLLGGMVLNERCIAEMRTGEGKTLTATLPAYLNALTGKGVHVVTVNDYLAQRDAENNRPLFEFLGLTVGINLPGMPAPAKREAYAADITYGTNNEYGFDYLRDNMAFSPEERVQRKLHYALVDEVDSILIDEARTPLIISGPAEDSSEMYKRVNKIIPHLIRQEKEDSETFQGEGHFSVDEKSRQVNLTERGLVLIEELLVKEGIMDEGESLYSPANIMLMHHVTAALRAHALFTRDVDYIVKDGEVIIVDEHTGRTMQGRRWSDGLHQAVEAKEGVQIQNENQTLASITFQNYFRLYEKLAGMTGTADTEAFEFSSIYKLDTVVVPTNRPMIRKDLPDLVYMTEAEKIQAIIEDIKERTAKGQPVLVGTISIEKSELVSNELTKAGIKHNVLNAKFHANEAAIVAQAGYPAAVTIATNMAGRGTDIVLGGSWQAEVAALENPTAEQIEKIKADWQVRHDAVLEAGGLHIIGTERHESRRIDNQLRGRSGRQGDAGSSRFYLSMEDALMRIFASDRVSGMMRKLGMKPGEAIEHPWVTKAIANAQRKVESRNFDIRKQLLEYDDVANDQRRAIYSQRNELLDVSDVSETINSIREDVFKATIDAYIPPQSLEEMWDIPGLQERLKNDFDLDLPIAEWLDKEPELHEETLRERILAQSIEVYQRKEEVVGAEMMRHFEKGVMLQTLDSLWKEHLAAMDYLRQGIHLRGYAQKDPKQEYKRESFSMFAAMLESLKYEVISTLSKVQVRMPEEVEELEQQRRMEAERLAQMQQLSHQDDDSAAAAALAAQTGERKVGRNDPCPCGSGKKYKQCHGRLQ
- method-description: Assay to Identify E. coli SecA ATPase Inhibitors
- Format: functional
- Design: scale not given: direction of the effect not stated beside the values
- test-parameters: 30 µM
Potency and affinity values are given separately.
Listing: Percent Effect of selected compounds
Record the value in %, omitting the unit from your answer.

> print(dat)
                                   compound  measured.quantity  unit.symbol  measured
1  Cc1cc(C)nc(N2Cc3cnn(Cc4ccc(F)cc4)c3C2)n1     Percent Effect            %     -6.24
2       Cc1ccc(CN2CCCn3nnc(COCC4CC4)c3C2)s1     Percent Effect            %     0.823
3      CS(=O)(=O)NCc1cnc2n1CCN(Cc1ccsc1)CC2     Percent Effect            %       1.5
4        COCCOc1ncccc1CNCc1c(C)nn(C)c1N(C)C     Percent Effect            %     -1.27

Prompt: Provide Percent Effect value for the following compound: CC(NC(=O)NCCCN1CCCCCC1)c1nncn1C (stereo not drawn)
Completion: -2.66

Prompt: Provide Percent Effect value for the following compound: COCC(=O)N1CCC(c2nccn2CC2CC2)CC1
Completion: 0.53

====

- Species on record: Homo sapiens
- method-description: To identify inhibition of the IFN signalling (Jak-Stat) pathway via expression of an eGFP reporter gene under the control of an IFN-stimulated response element (ISRE) containing MxA promoter.
- Assay type: functional
- Parameters: scale not given: direction of the effect not stated beside the values
- test-parameters: 30 µM
measured-quantity: Percent Effect (%)
Record the value in %, omitting the unit from your answer.

> print(dat)
                                    compound  measured
 1                CCOc1ncccc1NC(=O)N1CCCCCC1      13.2
 2             Cc1nnc(NCc2ccccc2Cl)c(C#N)c1C      26.5
 3  O=C(C1CCC1)N1CCCC1c1nnc2n1CCCCC2 (stereo not given)      27.9
 4  CC(NC(=O)CCCOc1ccccc1Cl)c1ccncc1 (stereo not given)      27.7
 5  Cc1cc(C(=O)O)cc(S(=O)(=O)Nc2ccc3c(c2)OCO3)c1C     -15.4
 6  CC(C)(C)c1ccc(C2(C(=O)NCCCS(C)(=O)=O)CC2)cc1     0.292
 7  O=C(Nc1nnc(C2CC2)s1)NC1CCN(Cc2ccccc2)C1 (stereo not given)      43.6
 8  CSc1ccc(Cl)c(C(=O)N2CCCC(CNS(C)(=O)=O)C2)c1 (stereo not given)        13
 9  COc1ccc(CNCC2CCN(CC(C)O)CC2)c2ccccc12 (stereo not given)      31.9
10    Cc1nc(CN2CCC(CNC(=O)Nc3ccccn3)CC2)oc1C     -2.29

Prompt: Provide Percent Effect value for the following compound: O=S(=O)(C1CC1)N1CCOCC2(CCN(c3ccccn3)C2)C1 (stereo not given)
Completion: 3.01

Prompt: Provide Percent Effect value for the following compound: CCc1ccc(CN2CCC3(CC2)CC(N2CCN(C)CC2)CO3)cc1 (stereo not given)
Completion: -0.446

Prompt: Provide Percent Effect value for the following compound: c1ccc(OCCCN2CCN(c3ccc4nncn4n3)CC2)cc1
Completion: 47.8
